Collected normalised cell viability values appear next to each entry.
Tested on: NCI-H1944
Test: normalised cell viability (NPI; 0 = phenylarsine oxide control, 1 = DMSO control) (fraction of DMSO control); higher = more viable cells (less compound toxicity)
Conditions: glucocorticoid arm: hydrocortisone 2.75 uM pre-treated 2 days and continued; compound 5 µM; 6 days
Structures can show the parent of a compound that is named as a salt. Over roughly 1,900 compounds, “normalised cell viability (NPI; 0 = phenylarsine oxide control, 1 = DMSO control)” has its median near 1; the lowest 2% begin near 0.039. For the sample, the lowest values were picked, then their nearest neighbours and some compounds at random.
Measured endpoint: normalised cell viability

- NCc1c[nH]c(=S)n1[C@H]1CCc2c(F)cc(F)cc2C1 [Nepicastat (SYN-117) HCl]: 0.98
- O=C(O)[C@@H]1C[C@H](C(=O)O)N1 [cis-Azetidine-2,4-dicarboxylic acid]: 1
- C[C@@H](Oc1ccc(Oc2cnc3ccc(Cl)cc3n2)cc1)C(=O)O: 1.05
- CC1c2cccc(O)c2C(O)=C2C(=O)C3(O)C(O)=C(C(N)=O)C(=O)C(N(C)C)C3C(O)C21 (stereo unspecified) [Doxycycline hydrochloride]: 0.945
- c1ccc2c(c1)CC(N1CCN(c3cccc4c3OCCO4)CC1)C2: 1.03
- CC(C)C[C@H](NC(=O)[C@H](Cc1ccccc1)NC(=O)c1cnccn1)B(O)O [Bortezomib]: 0.28
- CC(C)C[C@H](NC(=O)[C@@H](O)[C@H](N)Cc1ccccc1)C(=O)O [Bestatin hydrochloride]: 1.02
- COc1ccc(CCN(C)CCCC(C#N)(c2cc(OC)c(OC)c(OC)c2)C(C)C)cc1OC (racemic) [(±)-Methoxyverapamil hydrochloride]: 1.01
- CC(C)(C)c1cnc(CSc2cnc(NC(=O)C3CCNCC3)s2)o1: 0.133
- CC(C)C[C@H](NC(=O)[C@H](Cc1ccccc1)NC(=O)c1cnccn1)B(O)O [Bortezomib (Velcade)]: 0.351
- CCCCCCCCCCCCCCCc1cccc(O)c1C(=O)O [Anacardic acid]: 1.02
- CC(=O)[C@]1(O)Cc2c(O)c3c(c(O)c2[C@@H](O[C@H]2C[C@H](N)[C@H](O)[C@H](C)O2)C1)C(=O)c1ccccc1C3=O [Idarubicin hydrochloride]: 0.024
- CNCC[C@H](Oc1cccc2ccccc12)c1cccs1 [Duloxetine HCl]: 0.98
- CN(C)CCSSCCNC(=O)C1CCN(C(=O)CSc2ccc(Cl)cc2)CC1: 1.05
- COc1cccc(NC(=O)/C=C/c2ccc(Cl)cc2)c1: 0.941
- CO[C@H](C(=O)[C@@H](O)[C@@H](C)O)[C@@H]1Cc2cc3cc(O[C@H]4C[C@@H](O[C@H]5C[C@@H](O)[C@H](O)[C@@H](C)O5)[C@H](O)[C@@H](C)O4)c(C)c(O)c3c(O)c2C(=O)[C@H]1O[C@H]1C[C@@H](O[C@H]2C[C@@H](O[C@H]3C[C@](C)(O)[C@H](O)[C@@H](C)O3)[C@@H](O)[C@@H](C)O2)[C@H](O)[C@@H](C)O1 [Plicamycin]: 0.0631

----------
Tested on: NCI-H1944
Test: normalised cell viability (NPI; 0 = phenylarsine oxide control, 1 = DMSO control) (fraction of DMSO control); higher = more viable cells (less compound toxicity)
Details: glucocorticoid arm: hydrocortisone 2.75 uM pre-treated 2 days and continued; compound 5 µM; 6 days
Counter-ions that a name gives are not always drawn. In all, about 1,900 compounds were measured (“normalised cell viability (NPI; 0 = phenylarsine oxide control, 1 = DMSO control)”: median about 1, lowest 2% from about 0.039 on). Many of the other results were omitted from the sample, so the lowest values are more common in it than they were.
Collected normalised cell viability values appear next to each entry.
Measured endpoint: normalised cell viability

* CN1CCN(C2Cc3ccccc3Sc3ccc(Cl)cc32)CC1 (racemic) [(±)-Octoclothepin maleate] | 1.05
* N=c1ccn2c(n1)O[C@H]1[C@H](O)[C@@H](CO)O[C@H]12 [Ancitabine hydrochloride] | 0.211
* C[C@]12CC[C@H](O)CC1=CC[C@@H]1[C@@H]2CC[C@]2(C)C(c3cccnc3)=CC[C@@H]12 [Abiraterone] | 1.11
* OCC1OC(n2cnc3c(NCCc4ccccc4)ncnc32)C(O)C1O (stereo not given) [N6-2-Phenylethyladenosine] | 1
* CCCCCCCCCCCCCCCc1cccc(OCC)c1C(=O)Nc1ccc(Cl)c(C(F)(F)F)c1 | 1.02

----------
Test system: NCI-H1944
Assay: normalised cell viability (NPI; 0 = phenylarsine oxide control, 1 = DMSO control) (fraction of DMSO control); higher = more viable cells (less compound toxicity)
Details: glucocorticoid arm: vehicle; compound 1 µM; 6 days
Counter-ions that a name gives are not always drawn. The full ranking holds about 1,900 compounds; the median of “normalised cell viability (NPI; 0 = phenylarsine oxide control, 1 = DMSO control)” is about 1, and the lowest 2% start at about 0.039. What follows is part of a selection rich in the lowest values, with near analogues and random picks from the rest.
Measured endpoint: normalised cell viability

* O=C(/C=C/C#Cc1cccc(NS(=O)(=O)c2ccccc2)c1)NO [Oxamflatin] | 0.843
* CCc1c(C(=O)NCCc2ccc(N3CCCCC3)cc2)[nH]c2ccc(Cl)cc12 | 1
* CN(C)CCC(c1ccc(Br)cc1)c1ccccn1 (single isomer, unassigned; (+)) [(+)-Brompheniramine maleate] | 1.01
* CC(C)C[C@H](NC(=O)[C@H](O)[C@H](N)Cc1ccccc1)C(=O)O [Epibestatin hydrochloride] | 0.996
* CN1CCc2c(cc(O)c(O)c2Cl)C(c2cccc(Cl)c2)C1 (stereo unspecified) | 1
* O=C(O)c1ccnc(C(=O)O)c1 [2,4-Pyridinedicarboxylic Acid] | 0.996
* O=C1NCCc2[nH]c(-c3ccncc3)cc21 | 0.916
* CCCCCCCCCCCCCCCc1cccc(OCC)c1C(=O)Nc1ccc(Cl)c(C(F)(F)F)c1 | 1
* O=C(O)/C(=C\c1c(C(=O)O)[nH]c2cc(Cl)cc(Cl)c12)c1ccccc1 | 0.995
* O=C(CCCN1C(=O)c2cccc3cccc(c23)C1=O)NO [Nullscript] | 1
* O=C(/C=C/c1cccc(S(=O)(=O)Nc2ccccc2)c1)NO [Belinostat (PXD101)] | 0.575

----------
Collected normalised cell viability values appear next to each entry.
Test system: NCI-H1944
Assay: normalised cell viability (NPI; 0 = phenylarsine oxide control, 1 = DMSO control) (fraction of DMSO control); higher = more viable cells (less compound toxicity)
Conditions: glucocorticoid arm: hydrocortisone 2.75 uM pre-treated 2 days and continued; compound 5 µM; 6 days
Counter-ions that a name gives are not always drawn. Whole data set: some 1,900 compounds, median “normalised cell viability (NPI; 0 = phenylarsine oxide control, 1 = DMSO control)” near 1, cut for the lowest 2% near 0.039. Only a selection was taken, and the lowest values are over-represented in it overall.
Measured endpoint: normalised cell viability

• Cc1cc(Nc2ccc(NC(=O)c3ccc(Nc4ccnc5ccccc45)cc3)cc2)nc(N)n1 = 0.492
• Ic1ccc(N2CCN(Cc3c[nH]c4ncccc34)CC2)cc1 [L-750,667 trihydrochloride] = 0.999
• CN(C)CCC(c1ccc(Cl)cc1)c1ccccn1 (racemic) [(±)-Chlorpheniramine maleate] = 0.991
• O=C(Nc1cccc(Nc2ncc(Br)c(NCCc3cnc[nH]3)n2)c1)N1CCCC1 = 0.859
• N.N.N.N.N.N.N.N.N.N.N.N.N.N.O.O.[Cl-].[Cl-].[Cl-].[Cl-].[Cl-].[Cl-].[Ru+4].[Ru+5].[Ru+5] = 0.987
• S=C=Nc1cccc(NC(=S)NCCCCNC(=S)Nc2cccc(N=C=S)c2)c1 = 1.04
• O=S(=O)(NCCNCC=Cc1ccc(Br)cc1)c1cccc2cnccc12 = 1.01

----------
Collected normalised cell viability values appear next to each entry.
Test system: NCI-H1944
Experiment: normalised cell viability (NPI; 0 = phenylarsine oxide control, 1 = DMSO control) (fraction of DMSO control); higher = more viable cells (less compound toxicity)
Settings: glucocorticoid arm: hydrocortisone 2.75 uM pre-treated 2 days and continued; compound 1 µM; 6 days
Structures can show the parent of a compound that is named as a salt. Whole data set: some 1,900 compounds, median “normalised cell viability (NPI; 0 = phenylarsine oxide control, 1 = DMSO control)” near 1, cut for the lowest 2% near 0.039. What follows is part of a selection rich in the lowest values, with near analogues and random picks from the rest.
Measured endpoint: normalised cell viability

- COc1ccc(CCN(C)CCCC(C#N)(c2cc(OC)c(OC)c(OC)c2)C(C)C)cc1OC (racemic) [(±)-Methoxyverapamil hydrochloride]: 1.01
- C[C@H](NC(=O)/C(C#N)=C/c1cccc(Br)n1)c1ccccc1: 1.02
- O=C(c1ccc2c(c1)OCCO2)N1CCCCC1: 1.01

----------
Collected normalised cell viability values appear next to each entry.
Test system: NCI-H1944;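 also: CTB read-out in 384-well plates, triplicate wells, NPI normalised per plate against 1 µM phenylarsine oxide (0) and 0.1% DMSO (1) controls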
Experiment: normalised cell viability (NPI; 0 = phenylarsine oxide control, 1 = DMSO control) (fraction of DMSO control); NCI-H1944 is a non-small cell lung cancer line; higher = more viable cells (less compound toxicity)
Conditions: glucocorticoid arm: hydrocortisone 2.75 uM pre-treated 2 days and continued; compound 1 µM; 6 days
Whole data set: some 1,900 compounds, median “normalised cell viability (NPI; 0 = phenylarsine oxide control, 1 = DMSO control)” near 1, cut for the lowest 2% near 0.039. This is one part of a sample in which the lowest values are shown more often than they occur.
Measured endpoint: normalised cell viability

• O=C(c1ccc(F)cc1)N1CCCC(c2nc(-c3ccc(F)cc3)no2)C1 (stereo not drawn) = 1.02
• COc1ccc(NC(=O)c2ccc(-c3ccc(-c4noc(C)n4)cc3C)cc2)cc1N1CCN(C)CC1 = 1.02
• O=c1[nH]c2cc(Cl)c(Cl)cc2[nH]c1=O = 1
